Biological target: CXCR3 (Homo sapiens)
Sequence (P49682 whole entry): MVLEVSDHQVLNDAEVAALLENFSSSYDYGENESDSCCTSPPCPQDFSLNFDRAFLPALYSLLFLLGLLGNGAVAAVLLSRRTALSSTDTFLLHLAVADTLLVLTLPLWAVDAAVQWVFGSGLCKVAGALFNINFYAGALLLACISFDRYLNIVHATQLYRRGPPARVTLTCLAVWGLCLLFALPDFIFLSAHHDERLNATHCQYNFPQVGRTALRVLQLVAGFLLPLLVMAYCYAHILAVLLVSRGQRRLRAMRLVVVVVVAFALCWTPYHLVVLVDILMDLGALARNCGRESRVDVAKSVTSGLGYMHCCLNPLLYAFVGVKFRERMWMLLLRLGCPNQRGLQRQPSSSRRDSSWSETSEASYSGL
Assay: Chemotaxis assay IP10, L1.2 recombinant cells expressing hCXCR3
Assay type: cell-based
Conditions: L1.2 hCXCR3 cells, IP10 around 0.3 nM, 4 hours
Value kind: IC50 (µM)

a = O=C(NC1(c2ccccc2)CC1)c1ccc(CN(Cc2ccccn2)S(=O)(=O)c2ccc(Cl)cc2)cc1
b = O=S(=O)(c1ccc(Cl)cc1)N(Cc1ccc(-c2nnn[nH]2)cc1)Cc1ncco1
c = O=S(=O)(c1ccc(Cl)cc1)N(Cc1ccc(F)cc1)Cc1ccc(-c2nnn[nH]2)cc1
d = O=C(NS(=O)(=O)c1cccc(Cl)c1)c1ccc(CN(Cc2ccccn2)S(=O)(=O)c2ccc(Cl)cc2)cc1
e = O=C(Nc1ccc(CN(Cc2ccccn2)S(=O)(=O)c2ccc(Cl)cc2)cc1)C1(c2ccccc2)CC1
Task item: Put the items in sequence by IC50, from largest down. List the labels, following the order given in the request.
Reply: b, c, d, e, a
(b: 3.67 µM, c: 2.56 µM, d: 0.138 µM, e: 0.07 µM, a: 0.025 µM)

a = O=C(NCC1CC1)c1ccc(CN(Cc2ccccc2)S(=O)(=O)c2ccc(Cl)nc2)cc1
b = COCCCS(=O)(=O)NC(=O)c1ccc(CN(Cc2ccccn2)S(=O)(=O)c2ccc(Cl)cc2)cc1
Task item: Select one: a or b . Criterion: greater recorded IC50. Please reply using the label of the selected record.
Reply: b
(b: 3.83 µM, a: 0.328 µM)

a = N#Cc1ccc(S(=O)(=O)N(Cc2ccc(C(=O)NCC3CC3)cc2)Cc2ccccn2)cc1
b = N#Cc1ccc(S(=O)(=O)N(Cc2ccc(-c3nnn[nH]3)cc2)Cc2ccccn2)cc1
c = N#Cc1ccc(S(=O)(=O)N(Cc2ccc(C(=O)NCCc3cccc(Cl)c3)cc2)Cc2ccccn2)cc1
d = CCOc1ccc(S(=O)(=O)N(Cc2ccc(C(=O)O)cc2)Cc2cccnc2)cc1
e = Cc1noc(C)c1CN(Cc1ccc(-c2nnn[nH]2)cc1)S(=O)(=O)c1ccc(Cl)cc1
Task item: Given 5 compounds, produce a descending ranking by IC50. List the labels, following the order given in the request.
Reply: d, e, a, b, c
(d: 4.18 µM, e: 1.43 µM, a: 0.36 µM, b: 0.233 µM, c: 0.05 µM)

P = N#Cc1ccc(S(=O)(=O)N(Cc2ccc(C(=O)NC3(c4cccc(C#N)c4)CC3)cc2)Cc2ccccn2)cc1
Q = O=C(NS(=O)(=O)c1cccc(F)c1)c1ccc(CN(Cc2ccccn2)S(=O)(=O)c2ccc(Cl)cc2)cc1
R = O=S(=O)(c1ccc(Cl)cc1)N(Cc1ccc(-c2nnn[nH]2)cc1)Cc1ccc(F)cc1F
S = O=C(NS(=O)(=O)Cc1cccc([N+](=O)[O-])c1)c1ccc(CN(Cc2ccccc2)S(=O)(=O)c2ccc(Cl)cc2)cc1
T = O=C(NCc1cccc(Cl)c1)c1ccc(CN(Cc2ccccc2)S(=O)(=O)c2ccc(Cl)cc2)cc1
Task item: Endpoint returns the given compounds ordered by ascending IC50. List the labels, following the order given in the request.
Reply: P, Q, R, T, S
(P: 0.19 µM, Q: 0.339 µM, R: 0.681 µM, T: 1.29 µM, S: 2.42 µM)

====

Biological target: CXCR3 (Homo sapiens)
Assay: CXCR3 Ca2+ mobilization (FLIPR), stable hCXCR3-CHO cell line, I-TAC stimulated
Type: cell-based
Design: host or cells: CHO cells stably expressing hCXCR3
Conditions: hCXCR3-CHO cells, I-TAC 100 nM stimulated Ca2+ response; read-out: Ca-ITAC
Value kind: IC50 (µM)

N#Cc1ccc(CCN(Cc2ccccn2)S(=O)(=O)c2ccc(Cl)cc2)cc1 [Example 286]
4

a = CCOc1ccc(S(=O)(=O)N(Cc2ccc(C(=O)O)cc2)Cc2cccnc2)cc1 [Example 157]
b = N#Cc1ccc(CN(Cc2ccccn2)S(=O)(=O)c2ccccc2[N+](=O)[O-])cc1 [Example 173]
Task item: # return whichever of a and b has the smaller IC50 Please reply using the label of the selected record.
Reply: b
(b: 0.4 µM, a: 1.62 µM)

a = O=C(NCc1ccccc1)c1ccc(CN(Cc2ccccc2)S(=O)(=O)c2ccc(F)cc2)cc1 [Example 32]
b = N#Cc1ccc(S(=O)(=O)N(Cc2ccc(-c3nnn[nH]3)cc2)Cc2ccccn2)cc1 [Example 47]
Task item: # return whichever of a and b has the smaller IC50 Please reply using the label of the selected record.
Reply: b
(b: 1.16 µM, a: 3.9 µM)
